targetSystem: T1, recombinant domain III (DIII) of the envelope (E) glycoprotein of West Nile virus (West Nile virus)
T1 chain: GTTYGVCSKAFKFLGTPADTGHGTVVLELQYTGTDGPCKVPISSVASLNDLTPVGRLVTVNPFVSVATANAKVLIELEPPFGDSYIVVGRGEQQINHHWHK
protocolDetails: ELISA; blocking ELISA: rDIII (2 µg, printed as 0.15 nM) pre-incubated 1 h at room temperature with a tenfold molar excess (1.5 nM) of peptide, then added to coated hBMEC proteins; negative control (no rDIII) subtracted
measurementContext: both partners purified
Positions of bridges follow the written chain, without caps; N, C: chain ends. No end group written: not given here.
Listed below: percent inhibition of rDIII binding to proteins of hBMECs values for each entry.
The reply should be a number in %, with the unit left off.

binder: ACTKTDVHFCGGGS (disulfide 2-10 (inferred), additional alanine at the N-terminus (ACX7CGGGS); peptide of phage clone CC2; C-terminal linker; source: E. coli SHuffle T5, purified; N-terminal tag cleaved with enterokinase and removed on nickel beads; not shown: His6, N-terminal, cleaved; 28 aa tag, N-terminal, cleaved) [7-mer cyclic peptide CP2 (ACX7CGGGS form of CTKTDVHFC)]
unitAnnotation: %
endpointValue: 89

binder: ACMQTQRAHCGGGS (disulfide 2-10 (inferred), additional alanine at the N-terminus (ACX7CGGGS); peptide of phage clone CC6; C-terminal linker; source: E. coli SHuffle T5, purified; N-terminal tag cleaved with enterokinase and removed on nickel beads; not shown: His6, N-terminal, cleaved; 28 aa tag, N-terminal, cleaved) [7-mer cyclic peptide CP6 (ACX7CGGGS form of CMQTQRAHC)]
unitAnnotation: %
endpointValue: 47

Reported percent inhibition of rDIII binding to proteins of hBMECs of ACIHSSTRACGGGS (disulfide 2-10 (inferred), additional alanine at the N-terminus (ACX7CGGGS); peptide of phage clone CC4; C-terminal linker; source: E. coli SHuffle T5, purified; N-terminal tag cleaved with enterokinase and removed on nickel beads; not shown: His6, N-terminal, cleaved; 28 aa tag, N-terminal, cleaved) [7-mer cyclic peptide CP4 (ACX7CGGGS form of CIHSSTRAC)] : 67

Per the record, ACDPRHSKFCGGGS (disulfide 2-10 (inferred), additional alanine at the N-terminus (ACX7CGGGS); peptide of phage clone CC15; C-terminal linker; source: E. coli SHuffle T5, purified; N-terminal tag cleaved with enterokinase and removed on nickel beads; not shown: His6, N-terminal, cleaved; 28 aa tag, N-terminal, cleaved) [7-mer cyclic peptide CP15 (ACX7CGGGS form of CDPRHSKFC)] has percent inhibition of rDIII binding to proteins of hBMECs of 60
